Cited source: ChEMBL document CHEMBL2010643

assay_notes: Half life in Swiss albino mouse at 1 mg/kg, iv
Format: ADME, organism-based
Design: dose 1 mg/kg, route intravenous
conditions_used: in vivo
measure: half-life (min)
Give a bare numeral; the unit min is implied.

Consider the molecule `COc1cc(N2CCC(N3CCN(C)CC3)CC2)ccc1Nc1ncc(Cl)c(Nc2ccccc2S(=O)(=O)C(C)C)n1` and give its recorded half-life.
679
